# TARGET: MMP-9 (Homo sapiens)
# Construct: purchased Sino Biological 10327-HNAH
# Sequence (P14780 107-707 limits assumed): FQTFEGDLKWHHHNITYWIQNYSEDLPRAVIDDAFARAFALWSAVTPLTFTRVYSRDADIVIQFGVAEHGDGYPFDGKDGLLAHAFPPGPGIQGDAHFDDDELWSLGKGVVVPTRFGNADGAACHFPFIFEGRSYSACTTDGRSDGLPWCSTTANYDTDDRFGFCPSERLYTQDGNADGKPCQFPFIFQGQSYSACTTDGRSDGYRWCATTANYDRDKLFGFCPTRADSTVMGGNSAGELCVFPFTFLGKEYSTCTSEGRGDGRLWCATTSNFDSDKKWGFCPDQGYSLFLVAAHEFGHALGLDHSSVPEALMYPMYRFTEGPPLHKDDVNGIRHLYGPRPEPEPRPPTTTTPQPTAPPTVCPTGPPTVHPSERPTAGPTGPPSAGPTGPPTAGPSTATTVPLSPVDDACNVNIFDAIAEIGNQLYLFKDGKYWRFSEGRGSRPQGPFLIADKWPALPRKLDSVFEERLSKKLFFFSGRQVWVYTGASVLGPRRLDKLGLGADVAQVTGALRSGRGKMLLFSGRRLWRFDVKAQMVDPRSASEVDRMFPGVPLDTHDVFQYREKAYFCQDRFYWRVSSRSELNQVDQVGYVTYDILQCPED
# MEASUREMENT DESCRIPTION: MMP-9 inhibition assay (fluorogenic peptide substrate)
# Assay type: biochemical
# EXPERIMENTAL CONTEXT: mean ± SE; n.d: not detected; Fig. 5e prints no unit, µM; read-out: IC50
# Description: The inhibition by the small molecule compounds against MMP-2/MMP-9 was measured using an assay probing the enzyme proteolytic activity on the substrate DNP-Pro-Leu-Gly-Met-Trp-Ser-Arg (Enzo Life Sciences, USA). All assays were performed in the assay buffer containing 50 mM Tris, 100 mM NaCl. […] The rate of hydrolysis was monitored by quantifying the emission at 360 nm (ex: 280 nm). The emission was measured with intervals of the 30 s for 30 min with Synergy H1 Plate Reader (Agilent, USA). […]
Each record gets a class by IC50: range A (below 100 µM), range B (100 µM to below 200 µM), range C (200 µM or more)

MOLECULE: O=C(/C=C/CCCCC(=O)NCc1c[nH]nn1)CC(=O)NCC12CC3CC(CC(C3)C1)C2 [66+787 Linker 12]
TARGET: MMP-9 (Homo sapiens)
CATEGORY: range B
--
MOLECULE: Cn1c(O)nc2cc(C(=O)NCCCCC=CC(=O)CC(=O)NCCNC(=O)Cn3cnc4c(oc5ccccc54)c3=O)cnc21 [182+826 Linker 12]
TARGET: MMP-9 (Homo sapiens)
CATEGORY: range B
--
MOLECULE: O=C(Cn1cnc2c(oc3ccccc32)c1=O)NCc1c[nH]nn1 [182+787 Linker 1]
TARGET: MMP-9 (Homo sapiens)
CATEGORY: range B
--
MOLECULE: Cc1cc(=O)[nH]c(-n2nc(C)c(CCC(=O)NCCCCCCCCNC(=O)CCC(=O)NCc3c[nH]nn3)c2C)n1 [693+787 Linker 4]
TARGET: MMP-9 (Homo sapiens)
CATEGORY: range C
--
MOLECULE: Cn1c(O)nc2cc(C(=O)NCCNC(=O)CSCCNC(=O)Cn3cnc4c(oc5ccccc54)c3=O)cnc21 [182+826 Linker 24]
TARGET: MMP-9 (Homo sapiens)
CATEGORY: range C
--
MOLECULE: O=C(C=CCCCCNC(=O)c1cncc(O)c1)CC(=O)NCC12CC3CC(CC(C3)C1)C2 [66+828 Linker 12]
TARGET: MMP-9 (Homo sapiens)
CATEGORY: range A
--
MOLECULE: O=C(/C=C/CCCCNC(=O)c1cncc(O)c1)CC(=O)NCCNC(=O)Cn1cnc2c(oc3ccccc32)c1=O [182+828 Linker 12]
TARGET: MMP-9 (Homo sapiens)
CATEGORY: range A
--
MOLECULE: Cc1cc(=O)[nH]c(-n2nc(C)c(CCC(=O)NCCNC(=O)c3cncc(O)c3)c2C)n1 [693+828 Linker 1]
TARGET: MMP-9 (Homo sapiens)
CATEGORY: range C
--
MOLECULE: O=C(CCC(=O)NCc1c[nH]nn1)NCCCCCCCCNC(=O)Cn1cnc2c(oc3ccccc32)c1=O [182+787 Linker 4]
TARGET: MMP-9 (Homo sapiens)
CATEGORY: range B
--
MOLECULE: O=C(CCC(=O)NCc1c[nH]nn1)NCCOCCOCCNC(=O)Cn1cnc2c(oc3ccccc32)c1=O [182+787 Linker 10]
TARGET: MMP-9 (Homo sapiens)
CATEGORY: range B
--
MOLECULE: Cc1cc(=O)[nH]c(-n2nc(C)c(CCC(=O)NCCSCC(=O)NCc3c[nH]nn3)c2C)n1 [693+787 Linker 24]
TARGET: MMP-9 (Homo sapiens)
CATEGORY: range C
--
MOLECULE: O=C(CSCCNC(=O)c1cncc(O)c1)NCCNC(=O)Cn1cnc2c(oc3ccccc32)c1=O [182+828 Linker 24]
TARGET: MMP-9 (Homo sapiens)
CATEGORY: range A
--
MOLECULE: Cc1cc(=O)[nH]c(-n2nc(C)c(CCC(=O)NCc3c[nH]nn3)c2C)n1 [693+787 Linker 1]
TARGET: MMP-9 (Homo sapiens)
CATEGORY: range C
